B1: SETD8 (parent)
chain: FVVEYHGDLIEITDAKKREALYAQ

- Variants of: B1
- assay name: protein stability index of a GFP-peptide fusion (GPS, HEK-293T) (PSI 1-6); higher = more stable;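 also: lentivirally expressed fusions sorted by FACS into six bins by GFP to DsRed ratio, PSI derived from sequencing read proportions per bin multiplied by bin number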
- recorded conditions: c terminus: a fixed tail appended
parameter: protein stability index
Give the value as a plain number.

The variant listed as FVVEYHGDLIEITDAKKREALYIQ [A23I] shows protein stability index equal to 1.6

The variant listed as FVVEYHGDLIEITIAKKREALYAQ [D14I] shows protein stability index equal to 2.69

The variant listed as FVVEYHGDLIEITDAKKMEALYAQ [R18M] shows protein stability index equal to 2.98

The variant listed as FVVEYHGDLIEITDAKMREALYAQ [K17M] shows protein stability index equal to 2.46

The variant listed as FVVEYHGDYIEITDAKKREALYAQ [L9Y] shows protein stability index equal to 1.68

The variant listed as FVVEYHGDLIEITDLKKREALYAQ [A15L] shows protein stability index equal to 1.93

The variant listed as FVVEYHGDLIEITDYKKREALYAQ [A15Y] shows protein stability index equal to 1.13

The variant listed as FVVEYHGDLIEITDAMKREALYAQ [K16M] shows protein stability index equal to 1.59

The variant listed as FVVEYHGDLIEITDAKCREALYAQ [K17C] shows protein stability index equal to 2.17

The variant listed as FVVEYHGDLIEITDAKKRPALYAQ [E19P] shows protein stability index equal to 1.84

The variant listed as FVVEYHGDLHEITDAKKREALYAQ [I10H] shows protein stability index equal to 1.64

The variant listed as FVVEYHGDLIEINDAKKREALYAQ [T13N] shows protein stability index equal to 1.96

The variant listed as FKVEYHGDLIEITDAKKREALYAQ [V2K] shows protein stability index equal to 3.6

The variant listed as FVVEYHGDLIEITDAPKREALYAQ [K16P] shows protein stability index equal to 1.5

The variant listed as FVVEYHGCLIEITDAKKREALYAQ [D8C] shows protein stability index equal to 2.01

The variant listed as FVVEYHGMLIEITDAKKREALYAQ [D8M] shows protein stability index equal to 3.28

The variant listed as FVVEYHGDDIEITDAKKREALYAQ [L9D] shows protein stability index equal to 2.91

The variant listed as FVAEYHGDLIEITDAKKREALYAQ [V3A] shows protein stability index equal to 1.81

The variant listed as FVVEYHGDLIYITDAKKREALYAQ [E11Y] shows protein stability index equal to 2.56

The variant listed as FVVEYHGDLIEITDAKKREANYAQ [L21N] shows protein stability index equal to 1.81

The variant listed as FVVEYHGDLIEITDHKKREALYAQ [A15H] shows protein stability index equal to 1.87

The variant listed as FVVEYHGYLIEITDAKKREALYAQ [D8Y] shows protein stability index equal to 1.84

Source of measurements: the supplement of paper PMC10567573
